# reported koff; entries follow
Target: T1, recombinant human CD63 second extracellular domain (Ala 103-Val 203) fused with a polyhistidine tag at the … (human, UniProt P08962 103-203)
T1 construct: range 103-203; Bought from Creative BioMart; also called human His-tagged CD63; soluble CD63
T1 sequence (looked up): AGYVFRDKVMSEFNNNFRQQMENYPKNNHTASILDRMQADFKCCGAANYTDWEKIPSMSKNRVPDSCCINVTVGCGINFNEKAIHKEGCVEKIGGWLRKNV
Experiment: BLI (Octet HTX), IgG on anti-human Fc sensors, His-tagged CD63 as analyte, 30 C
Enter your answer as a number in s⁻¹; do not include the unit.

[[record]]
binder = "IgG1-CD63 affinity variant Y79H (antibody, V domains shown, As m1 with one histidine substitution) VH: EVQLQQSGPELVKPGASVKMSCKASGYTFTSYVMHWVRQTPGQGLEWIGYITPYNDGTKHNEKFKGKATLTSDKSSSTAYMELSSLTSEDSAVYYCVGGDNYYYAMDYWGQGTSVTVSA VL: NIMVTQSPSSLAVSAGEKVTMSCKSSQSVLYSSNQKNYLAWYQQKPGQSPKLLIYWASTRVSGVPDRFTGSGSGTDFTLTISRVQAEDLAVYYCHQYFSSFTFGSGTKLEIKR"
unit_name = "s⁻¹"
numeric_readout = 0.00014


Prompt: Param item = IgG1-CD63 affinity variant LS52 (antibody, V domains shown, As m1 with one histidine substitution in the light chain) VH: EVQLQQSGPELVKPGASVKMSCKASGYTFTSYVMHWVRQTPGQGLEWIGYITPYNDGTKYNEKFKGKATLTSDKSSSTAYMELSSLTSEDSAVYYCVGGDNYYYAMDYWGQGTSVTVSA VL: NIMVTQSPSSLAVSAGEKVTMSCKSSQSVLYHSNQKNYLAWYQQKPGQSPKLLIYWASTRVSGVPDRFTGSGSGTDFTLTISRVQAEDLAVYYCHQYFSSFTFGSGTKLEIKR ; retrieve measured koff.
Completion: 6.3e-05
